Experiment: Biodistribution of 68Ga-labeled peptide in mice bearing B16F10 mouse melanoma
Assay type: in vivo, C57BL/6J mice
Details: kidneys, iv, total radioactivity, 2 h p.i. unblocked, C57BL/6J mice, B16F10 melanoma, read-out: Biodistribution, Kidneys
Observation type: tissue uptake at 2 h (%ID/g)
Answers are plain numbers, in %ID/g.

Query: State, in one line, measured tissue uptake at 2 h of CCCC[C@H](NC(=O)CN1CCC(NC(=O)CN2CCN(CC(=O)O)CCN(CC(=O)O)CCN(CC(=O)O)CC2)CC1)C(=O)N[C@H]1CC(=O)NCCCC[C@@H](C(N)=O)N(C)C(=O)[C@H](Cc2c[nH]c3ccccc23)N(C)C(=O)[C@H](CCCNC(=N)N)N(C)C(=O)[C@@H](Cc2ccccc2)NC(=O)[C@H](Cc2c[nH]cn2)N(C)C1=O [^68Ga-labeled CCZ01099, metal not drawn]
Response: 4.42

----------
Kindly state tissue uptake at 4 h for each of the entries shown.
Assay: Biodistribution of 177Lu-labeled αMSH analogues in mice bearing SK-MEL-1 human melanoma
Conditions: male, NRG (NOD.Cg-Rag1tm1Mom Il2rgtm1Wjl/SzJ), mouse, intestine, total radioactivity
One number for each entry, in %ID/g.

Take a look at these entries with their results.
Compound | Unit info | Endpoint value
CCCC[C@H](NC(=O)CN1CCC(NC(=O)[C@H](CCCCNC(=O)CN2CCN(CC(=O)O)CCN(CC(=O)O)CCN(CC(=O)O)CC2)NC(=O)[C@H](CCC(=O)O)NC(=O)CCCc2ccc(I)cc2)CC1)C(=O)N[C@H]1CC(=O)NCCCC[C@@H](C(N)=O)N(C)C(=O)[C@H](Cc2c[nH]c3ccccc23)NC(=O)[C@H](CCCNC(=N)N)N(C)C(=O)[C@@H](Cc2ccccc2)NC(=O)[C@H](Cc2c[nH]cn2)NC1=O [^177Lu-labeled CCZ01118, metal not drawn] | %ID/g | 0.79
CCCC[C@H](NC(=O)CN1CCC(NC(=O)[C@H](CCCCNC(=O)CN2CCN(CC(=O)O)CCN(CC(=O)O)CCN(CC(=O)O)CC2)NC(=O)CNC(=O)CCCc2ccc(I)cc2)CC1)C(=O)N[C@H]1CC(=O)NCCCC[C@@H](C(N)=O)N(C)C(=O)[C@H](Cc2c[nH]c3ccccc23)NC(=O)[C@H](CCCNC(=N)N)N(C)C(=O)[C@@H](Cc2ccccc2)NC(=O)[C@H](Cc2c[nH]cn2)NC1=O [^177Lu-labeled CCZ01148, metal not drawn] | %ID/g | 2.26

Query: Item CCCC[C@H](NC(=O)CN1CCC(NC(=O)[C@H](CCCCNC(=O)CN2CCN(CC(=O)O)CCN(CC(=O)O)CCN(CC(=O)O)CC2)NC(=O)CNC(=O)CCCc2ccc(-c3ccc(C)cc3)cc2)CC1)C(=O)N[C@H]1CC(=O)NCCCC[C@@H](C(N)=O)N(C)C(=O)[C@H](Cc2c[nH]c3ccccc23)NC(=O)[C@H](CCCNC(=N)N)N(C)C(=O)[C@@H](Cc2ccccc2)NC(=O)[C@H](Cc2c[nH]cn2)NC1=O [^177Lu-labeled CCZ01158, metal not drawn] : provide tissue uptake at 4 h
Response: 1.32

----------
Experiment: Biodistribution of 177Lu-labeled αMSH analogues in mice bearing B16F10 mouse melanoma
Type: in vivo, C57BL/6J mice
Conditions: mouse, lungs, iv, total radioactivity; 24 h p.i., C57BL/6J mice, B16F10 melanoma; read-out: Biodistribution, Lungs
Provide the reported tissue uptake at 24 h of each item.
Give bare numbers, in %ID/g.

A selection of reference data follows.
Molecule | Endpoint value
CCCC[C@H](NC(=O)CN1CCC(NC(=O)CN2CCN(CC(=O)O)CCN(CC(=O)O)CCN(CC(=O)O)CC2)CC1)C(=O)N[C@H]1CC(=O)NCCCC[C@@H](C(N)=O)N(C)C(=O)[C@H](Cc2c[nH]c3ccccc23)NC(=O)[C@H](CCCNC(=N)N)N(C)C(=O)[C@@H](Cc2ccccc2)NC(=O)[C@H](Cc2c[nH]cn2)NC1=O [^177Lu-labeled CCZ01106, metal not drawn] | 0.06
CCCC[C@H](NC(=O)CN1CCC(NC(=O)[C@H](CCCCNC(=O)CN2CCN(CC(=O)O)CCN(CC(=O)O)CCN(CC(=O)O)CC2)NC(=O)[C@H](CCC(=O)O)NC(=O)CCCc2ccc(I)cc2)CC1)C(=O)N[C@H]1CC(=O)NCCCC[C@@H](C(N)=O)N(C)C(=O)[C@H](Cc2c[nH]c3ccccc23)N(C)C(=O)[C@H](CCCNC(=N)N)N(C)C(=O)[C@@H](Cc2ccccc2)NC(=O)[C@H](Cc2c[nH]cn2)N(C)C1=O [^177Lu-labeled CCZ01088, metal not drawn] | 1.19
CCCC[C@H](NC(=O)CN1CCC(NC(=O)[C@H](CCCCNC(=O)CN2CCN(CC(=O)O)CCN(CC(=O)O)CCN(CC(=O)O)CC2)NC(=O)[C@H](CCC(=O)O)NC(=O)CCCc2ccc(I)cc2)CC1)C(=O)N[C@H]1CC(=O)NCCCC[C@@H](C(N)=O)NC(=O)[C@H](Cc2c[nH]c3ccccc23)NC(=O)[C@H](CCCNC(=N)N)NC(=O)[C@@H](Cc2ccccc2)NC(=O)[C@H](Cc2c[nH]cn2)NC1=O [^177Lu-labeled CCZ01082, metal not drawn] | 0.42
CCCC[C@H](NC(=O)CN1CCC(NC(=O)[C@H](CCCCNC(=O)CN2CCN(CC(=O)O)CCN(CC(=O)O)CCN(CC(=O)O)CC2)NC(=O)[C@H](CCC(=O)O)NC(=O)CCCc2ccc(I)cc2)CC1)C(=O)N[C@H]1CC(=O)NCCCC[C@@H](C(N)=O)N(C)C(=O)[C@H](Cc2c[nH]c3ccccc23)NC(=O)[C@H](CCCNC(=N)N)N(C)C(=O)[C@@H](Cc2ccccc2)NC(=O)[C@H](Cc2c[nH]cn2)NC1=O [^177Lu-labeled CCZ01118, metal not drawn] | 0.33

Query: Consider the molecule CCCC[C@H](NC(=O)CN1CCC(NC(=O)CN2CCN(CC(=O)O)CCN(CC(=O)O)CCN(CC(=O)O)CC2)CC1)C(=O)N[C@H]1CC(=O)NCCCC[C@@H](C(N)=O)N(C)C(=O)[C@H](Cc2c[nH]c3ccccc23)N(C)C(=O)[C@H](CCCNC(=N)N)N(C)C(=O)[C@@H](Cc2ccccc2)NC(=O)[C@H](Cc2c[nH]cn2)N(C)C1=O [^177Lu-labeled CCZ01099, metal not drawn] . State its measured tissue uptake at 24 h.
Response: 0.07

----------
Field: tissue uptake at 1 h. Provide a value for each of the molecules that follow.
Assay: Biodistribution of 177Lu-labeled αMSH analogues in mice bearing SK-MEL-1 human melanoma
Details: male, NRG (NOD.Cg-Rag1tm1Mom Il2rgtm1Wjl/SzJ), mouse, thyroid, total radioactivity
Answers are plain numbers, in %ID/g.

The examples below pair each entry with its known result.
Molecule | Unit info | tissue uptake at 1 h
CCCC[C@H](NC(=O)CN1CCC(NC(=O)[C@H](CCCCNC(=O)CN2CCN(CC(=O)O)CCN(CC(=O)O)CCN(CC(=O)O)CC2)NC(=O)[C@H](CCC(=O)O)NC(=O)CCCc2ccc(I)cc2)CC1)C(=O)N[C@H]1CC(=O)NCCCC[C@@H](C(N)=O)N(C)C(=O)[C@H](Cc2c[nH]c3ccccc23)NC(=O)[C@H](CCCNC(=N)N)N(C)C(=O)[C@@H](Cc2ccccc2)NC(=O)[C@H](Cc2c[nH]cn2)NC1=O [^177Lu-labeled CCZ01118, metal not drawn] | %ID/g | 4.03
CCCC[C@H](NC(=O)CN1CCC(NC(=O)[C@H](CCCCNC(=O)CN2CCN(CC(=O)O)CCN(CC(=O)O)CCN(CC(=O)O)CC2)NC(=O)CNC(=O)CCCc2ccc(-c3ccc(C)cc3)cc2)CC1)C(=O)N[C@H]1CC(=O)NCCCC[C@@H](C(N)=O)N(C)C(=O)[C@H](Cc2c[nH]c3ccccc23)NC(=O)[C@H](CCCNC(=N)N)N(C)C(=O)[C@@H](Cc2ccccc2)NC(=O)[C@H](Cc2c[nH]cn2)NC1=O [^177Lu-labeled CCZ01158, metal not drawn] | %ID/g | 5.57

Continue with the molecule presented below.
Query: Given CCCC[C@H](NC(=O)CN1CCC(NC(=O)[C@H](CCCCNC(=O)CN2CCN(CC(=O)O)CCN(CC(=O)O)CCN(CC(=O)O)CC2)NC(=O)CNC(=O)CCCc2ccc(I)cc2)CC1)C(=O)N[C@H]1CC(=O)NCCCC[C@@H](C(N)=O)N(C)C(=O)[C@H](Cc2c[nH]c3ccccc23)NC(=O)[C@H](CCCNC(=N)N)N(C)C(=O)[C@@H](Cc2ccccc2)NC(=O)[C@H](Cc2c[nH]cn2)NC1=O [^177Lu-labeled CCZ01148, metal not drawn] , respond with its tissue uptake at 1 h.
Response: 7.45
